# assay-system: T1, SARS-CoV-2 S1 (subunit 1) protein (SARS-CoV-2, UniProt P0DTC2 16-685)
# T1 construct: also called biotinylated SARS-CoV-2 S1
# method-notes: phage ELISA
recorded-endpoint: screening ELISA (Avg), fold over background

{"columns": ["binder", "experimental-result"],
 "data": [
  ["SARS-CoV-2 variant 1-10 (antibody, V domains shown) VH: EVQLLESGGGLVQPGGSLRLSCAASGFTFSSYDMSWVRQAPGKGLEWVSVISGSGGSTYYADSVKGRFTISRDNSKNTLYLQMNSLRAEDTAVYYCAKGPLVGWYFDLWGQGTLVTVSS VL: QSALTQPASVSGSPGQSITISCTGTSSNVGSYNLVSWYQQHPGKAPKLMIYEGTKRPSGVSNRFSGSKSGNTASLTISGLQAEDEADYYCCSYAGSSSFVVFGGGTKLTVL", "16.9 fold over background"],
  ["SARS-CoV-2 variant 1-31 (antibody, V domains shown) VH: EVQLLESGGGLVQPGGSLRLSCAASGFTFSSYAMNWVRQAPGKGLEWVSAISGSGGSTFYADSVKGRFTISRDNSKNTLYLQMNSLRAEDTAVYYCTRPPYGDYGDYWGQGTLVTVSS VL: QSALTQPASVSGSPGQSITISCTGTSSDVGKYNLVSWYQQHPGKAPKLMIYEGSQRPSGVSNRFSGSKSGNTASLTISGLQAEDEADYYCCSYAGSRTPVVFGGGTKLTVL", "20.7 fold over background"]
]}

Ask | Field request: screening ELISA (Avg), fold over background | item: SARS-CoV-2 variant 1-29 (antibody, V domains shown) VH: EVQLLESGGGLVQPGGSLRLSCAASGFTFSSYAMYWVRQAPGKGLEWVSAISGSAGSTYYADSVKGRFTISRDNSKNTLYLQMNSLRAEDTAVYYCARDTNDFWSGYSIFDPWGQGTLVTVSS VL: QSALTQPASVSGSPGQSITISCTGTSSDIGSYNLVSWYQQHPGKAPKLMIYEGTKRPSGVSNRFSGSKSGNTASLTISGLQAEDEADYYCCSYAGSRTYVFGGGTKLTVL
Reply | 23.8 fold over background

From: patent US20210395344A1
